Listed below: pEC50 F values for each entry.
System: Strain F (mutations K103N and Y181C in HIV reverse transcriptase)
measurementDescription: cellular antiviral assay, HIV mutant strain F
Format: cell-based
conditionDescription: strain F, K103N and Y181C
quantityName: pEC50 F

molecule: Cc1cc(/C=C/C#N)cc(C)c1-n1ccc2c(C)nc(Nc3ccc(C#N)cc3)nc21
reported: 7.8
--
molecule: Cc1cc(CCC#N)ccc1N1CCc2c(C)nc(Nc3ccc(C#N)cc3)nc21
reported: 6.9
--
molecule: CCc1cc(C=CC#N)cc(Br)c1N1CCc2c(C)nc(Nc3ccc(C#N)cc3)nc21 (mixture of isomers)
reported: 7.5
--
molecule: Cc1cc(C=CC#N)cc(Br)c1N1CCc2c(C)nc(Nc3ccc(C#N)cc3)nc21 (mixture of isomers)
reported: 7.7
--
molecule: Cc1nc(Nc2ccc(C#N)cc2)nc2c1CCN2c1c(F)cc(/C=C/C#N)cc1Cl
reported: 7.9
--
molecule: Cc1nc(Nc2ccc(C#N)cc2)nc2c1CCN2c1c(Cl)cc(C=CC#N)cc1Cl (mixture of isomers) [Compound 7a]
reported: 7.7
--
molecule: CCc1cc(CCC#N)cc(CC)c1N1CCc2c(C)nc(Nc3ccc(C#N)cc3)nc21
reported: 7.3
--
molecule: Cc1nc(Nc2ccc(C#N)cc2)nc2c1CCN2c1c(F)cc(C=CC#N)cc1F (mixture of isomers)
reported: 7.4
--
molecule: CCc1cc(/C=C/C#N)ccc1N1CCc2c(C)nc(Nc3ccc(C#N)cc3)nc21
reported: 7.6
--
molecule: Cc1cc(CCC#N)cc(C)c1N1CCc2c(C)nc(Nc3ccc(C#N)cc3)nc21
reported: 8
--
molecule: Cc1nc(Nc2ccc(C#N)cc2)nc2c1CCN2c1c(F)cc(/C=C\C#N)cc1Cl
reported: 7
--
molecule: Cc1cc(/C=C/C#N)cc(C)c1-n1c(-c2ccccc2)nc2cnc(Nc3ccc(C#N)cc3)nc21
reported: 6.4

###

Tested on: Strain IIIB (wild type HIV-LAI strain)
measurementDescription: cellular antiviral assay, wild type HIV
Format: cell-based
conditionDescription: Human immunodeficiency virus 1, IIIB, read-out: pEC50 IIIB (converted)
Criterion: EC50 strictly under 3 nM. Met: fulfilled. Not met: not fulfilled.

mol: N#C/C=C/c1cc(F)c(-n2c(N)nc3cnc(Nc4ccc(C#N)cc4)nc32)c(Cl)c1
targetOrTestSystem: Strain IIIB (wild type HIV-LAI strain)
classAssignment: not fulfilled

mol: N#C/C=C/c1cc(F)c(-n2cnc3cnc(Nc4ccc(C#N)cc4)nc32)c(Cl)c1
targetOrTestSystem: Strain IIIB (wild type HIV-LAI strain)
classAssignment: fulfilled

mol: Cc1cc(/C=C/C#N)cc(C)c1-n1c(=S)[nH]c2cnc(Nc3ccc(C#N)cc3)nc21
targetOrTestSystem: Strain IIIB (wild type HIV-LAI strain)
classAssignment: fulfilled

mol: C/C(C#N)=C\c1cc(C)c(N2CCc3c(C)nc(Nc4ccc(C#N)cc4)nc32)c(C)c1
targetOrTestSystem: Strain IIIB (wild type HIV-LAI strain)
classAssignment: fulfilled

mol: Cc1cc(/C=C/C#N)cc(C)c1-n1cnc2cnc(Nc3ccc(C#N)cc3)nc21
targetOrTestSystem: Strain IIIB (wild type HIV-LAI strain)
classAssignment: fulfilled

mol: Cc1cc(/C=C/C#N)cc(C)c1-n1c(N)nc2cnc(Nc3ccc(C#N)cc3)nc21
targetOrTestSystem: Strain IIIB (wild type HIV-LAI strain)
classAssignment: fulfilled

mol: CCc1nc2cnc(Nc3ccc(C#N)cc3)nc2n1-c1c(C)cc(/C=C/C#N)cc1C
targetOrTestSystem: Strain IIIB (wild type HIV-LAI strain)
classAssignment: not fulfilled

mol: CCOC(=O)c1cc(C)c(N2CCc3c(C)nc(Nc4ccc(C#N)cc4)nc32)c(C)c1
targetOrTestSystem: Strain IIIB (wild type HIV-LAI strain)
classAssignment: not fulfilled
